assay target: SHP2 (Homo sapiens, UniProt Q06124)
Sequence (Q06124 whole entry): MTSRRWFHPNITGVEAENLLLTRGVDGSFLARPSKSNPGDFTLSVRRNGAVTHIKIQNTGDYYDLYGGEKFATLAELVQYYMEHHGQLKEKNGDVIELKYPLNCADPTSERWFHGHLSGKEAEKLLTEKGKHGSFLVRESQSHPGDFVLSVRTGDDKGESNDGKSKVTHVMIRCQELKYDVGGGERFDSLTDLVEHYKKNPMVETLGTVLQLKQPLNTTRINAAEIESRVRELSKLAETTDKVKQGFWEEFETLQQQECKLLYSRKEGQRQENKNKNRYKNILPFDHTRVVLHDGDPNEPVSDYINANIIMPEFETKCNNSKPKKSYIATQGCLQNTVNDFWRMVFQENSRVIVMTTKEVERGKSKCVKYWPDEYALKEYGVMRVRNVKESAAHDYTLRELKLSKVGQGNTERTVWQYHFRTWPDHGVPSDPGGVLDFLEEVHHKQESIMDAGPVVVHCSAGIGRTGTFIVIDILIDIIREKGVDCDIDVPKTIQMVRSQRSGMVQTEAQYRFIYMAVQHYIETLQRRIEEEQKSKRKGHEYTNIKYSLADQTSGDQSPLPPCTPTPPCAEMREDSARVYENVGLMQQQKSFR
assay protocol: SHP2 allosteric inhibitor enzyme activity assay (DiFMUP fluorescence)
Assay type: biochemical
condition notes: class symbols
pIC50: −log10 of the molar value.
metric name: pIC50

Solved entries (count: 10):
compound	assay target	pIC50
N[C@@H]1c2ccccc2CC12CCN(c1nc3[nH]nc(C4(c5ccccc5)CC4(F)F)c3c(=O)[nH]1)CC2 (some centres unmarked)	SHP2 (Homo sapiens, UniProt Q06124)	≥ 7.70
N#Cc1nnc(C2(c3n[nH]c4nc(N5CCC6(CC5)Cc5ccccc5[C@H]6N)[nH]c(=O)c34)CC2)s1	SHP2 (Homo sapiens, UniProt Q06124)	≥ 7.70
N[C@@H]1c2ccccc2CC12CCN(c1nc3[nH]nc(C4(c5ccnc(Cl)c5)CC4)c3c(=O)[nH]1)CC2	SHP2 (Homo sapiens, UniProt Q06124)	≥ 7.70
N[C@@H]1c2ccccc2CC12CCN(c1nc3[nH]nc(C4(c5ccnc(CN6CCCC6)c5)CC4)c3c(=O)[nH]1)CC2	SHP2 (Homo sapiens, UniProt Q06124)	7.22 to 7.70
N[C@@H]1c2ccccc2CC12CCN(c1nc3[nH]nc(C4(c5ccc6nccnc6c5)CC4)c3c(=O)[nH]1)CC2	SHP2 (Homo sapiens, UniProt Q06124)	7.22 to 7.70
N[C@@H]1c2ccccc2CC12CCN(c1nc3[nH]nc(C4=CCCc5ncc(C(F)(F)F)cc54)c3c(=O)[nH]1)CC2	SHP2 (Homo sapiens, UniProt Q06124)	7.22 to 7.70
N[C@@H]1c2ccccc2CC12CCN(c1nc3[nH]nc(C4(c5cnn(Cc6ccccc6)c5)CC4)c3c(=O)[nH]1)CC2	SHP2 (Homo sapiens, UniProt Q06124)	≥ 7.70
N[C@@H]1c2ccccc2CC12CCN(c1nc3[nH]nc(C4(c5cocn5)CC4)c3c(=O)[nH]1)CC2	SHP2 (Homo sapiens, UniProt Q06124)	≥ 7.70
Cn1c(N2CCC3(CC2)Cc2ccccc2[C@H]3N)nc2[nH]nc(C3(c4ccccc4)CCC3)c2c1=O	SHP2 (Homo sapiens, UniProt Q06124)	≥ 7.70
C[C@@H]1OCC2(CCN(c3nc(N)c(C4(c5ccccc5)CC4)c(=O)n3C)CC2)[C@@H]1N	SHP2 (Homo sapiens, UniProt Q06124)	< 7.22

Lab note: next compound to report on.
Please report pIC50 for the following compound: N[C@@H]1c2ccccc2CC12CCN(c1nc3[nH]nc(C4=CCOc5cc(F)ccc54)c3c(=O)[nH]1)CC2
≥ 7.70
